Each recorded value in this set is attributed to patent US20050060764A1.

System: mouse RANKL mRNA
PROTOCOL: Antisense inhibition of mouse RANKL mRNA levels in C2C12 cells, quantitative real-time PCR (Table 2)
Assay type: cell-based
Design: concentration or dose not given beside the values
CONDITION_INFO: averages from three experiments
Strand notation (5' to 3'): a small letter for the sugar, then the base; units joined by * are phosphorothioate-linked, units joined directly phosphodiester-linked; [ ] holds rarer units or linkages, { } end groups; capitals alone tell only the bases. e = 2'-O-(2-methoxyethyl) (MOE); [5mC] = 5-methylcytosine; d = 2'-deoxy (DNA)
Values of % INHIB (inhibition of mouse RANKL mRNA levels) greater than or equal to 50% map to Yes; values below map to No.

SUBSTANCE	CAT
180810 (antisense eT*e[5mC]*eA*eG*eA*dA*dT*dT*dG*d[5mC]*d[5mC]*d[5mC]*dG*dA*d[5mC]*e[5mC]*eA*eG*eT*eT) [compound 180810]	Yes
180829 (antisense eA*eA*eG*eG*e[5mC]*dA*d[5mC]*d[5mC]*dT*dG*dG*dT*dG*dA*d[5mC]*e[5mC]*eA*eA*e[5mC]*eA) [compound 180829]	No
180804 (antisense e[5mC]*eA*eG*eT*eT*d[5mC]*d[5mC]*dT*dT*d[5mC]*dT*dG*d[5mC]*dA*d[5mC]*eG*eG*e[5mC]*e[5mC]*e[5mC]) [compound 180804]	No
180792 (antisense eT*eG*e[5mC]*eT*e[5mC]*d[5mC]*dG*d[5mC]*dG*dA*dT*d[5mC]*dG*dT*dT*e[5mC]*eT*e[5mC]*eT*e[5mC]) [compound 180792]	Yes
180800 (antisense eA*e[5mC]*eA*eT*eG*dG*dA*dG*d[5mC]*dG*dG*dG*dA*dG*dG*e[5mC]*eG*eG*e[5mC]*eG) [compound 180800]	Yes
180814 (antisense eG*eT*e[5mC]*eT*eT*dA*d[5mC]*dA*d[5mC]*dA*dT*dG*dT*dA*dT*eA*eG*eA*e[5mC]*eA) [compound 180814]	Yes
180793 (antisense eG*e[5mC]*e[5mC]*e[5mC]*eT*dG*d[5mC]*dT*d[5mC]*d[5mC]*dG*d[5mC]*dG*dA*dT*e[5mC]*eG*eT*eT*e[5mC]) [compound 180793]	Yes
180797 (antisense eT*e[5mC]*eT*e[5mC]*eG*dG*d[5mC]*dT*dG*dG*d[5mC]*d[5mC]*d[5mC]*dG*dG*e[5mC]*eG*e[5mC]*eA*eT) [compound 180797]	Yes
180826 (antisense eT*eA*e[5mC]*eA*eA*dA*dG*dT*dG*d[5mC]*dA*d[5mC]*d[5mC]*dA*dG*eT*eT*eA*eA*eA) [compound 180826]	No
180813 (antisense eA*eT*eG*eT*eT*d[5mC]*d[5mC]*dA*d[5mC]*dG*dA*dA*dA*dT*dG*eA*eG*eT*e[5mC]*eT) [compound 180813]	No
180828 (antisense eT*eT*eT*eA*eT*dT*dT*dT*dG*d[5mC]*dT*dT*dG*d[5mC]*dA*eT*eA*eG*eT*eT) [compound 180828]	No
180803 (antisense eT*e[5mC]*eT*eT*e[5mC]*dA*d[5mC]*dT*d[5mC]*dT*d[5mC]*d[5mC]*dA*dG*dA*eG*eT*e[5mC]*eG*eA) [compound 180803]	Yes

* * *

Test system: mouse RANKL mRNA
PROTOCOL: Antisense inhibition of mouse RANKL mRNA levels in C2C12 cells, quantitative real-time PCR (Table 2)
Type: cell-based
Parameters: concentration or dose not given beside the values
CONDITION_INFO: averages from three experiments
Strand notation (5' to 3'): a small letter for the sugar, then the base; units joined by * are phosphorothioate-linked, units joined directly phosphodiester-linked; [ ] holds rarer units or linkages, { } end groups; capitals alone tell only the bases. e = 2'-O-(2-methoxyethyl) (MOE); [5mC] = 5-methylcytosine; d = 2'-deoxy (DNA)
This section presents substances with their documented % INHIB (inhibition of mouse RANKL mRNA levels) values.
ENDPOINT_NAME: % INHIB (inhibition of mouse RANKL mRNA levels) (%)

SUBSTANCE	TEST_VALUE
180825 (antisense eG*eT*eA*e[5mC]*eA*dT*dT*dT*dA*dA*dA*dA*d[5mC]*dA*dT*eT*eA*eA*eA*eT) [compound 180825]	25
180796 (antisense eT*e[5mC]*eG*eG*e[5mC]*dT*dG*dG*d[5mC]*d[5mC]*d[5mC]*dG*dG*d[5mC]*dG*e[5mC]*eA*eT*eG*eG) [compound 180796]	67

* * *

Tested on: mouse RANKL mRNA
PROTOCOL: Antisense inhibition of mouse RANKL mRNA levels in C2C12 cells, quantitative real-time PCR (Table 2)
Assay type: cell-based
Set-up: concentration or dose not given beside the values
CONDITION_INFO: averages from three experiments
Experimental: Cells were seeded into 24-well plates (Falcon-353047 at a density of ˜10,000 cells/cm^2 for use in antisense oligonucleotide transfection. Cells are treated and data are obtained in triplicate. […] Cells were harvested 16-24 hours after oligonucleotide treatment. PCR reagents were obtained from Invitrogen Corporation, (Carlsbad, Calif.). […]
Strand notation (5' to 3'): a small letter for the sugar, then the base; units joined by * are phosphorothioate-linked, units joined directly phosphodiester-linked; [ ] holds rarer units or linkages, { } end groups; capitals alone tell only the bases. e = 2'-O-(2-methoxyethyl) (MOE); [5mC] = 5-methylcytosine; d = 2'-deoxy (DNA)
ENDPOINT_NAME: % INHIB (inhibition of mouse RANKL mRNA levels)

SUBSTANCE	TEST_VALUE
gttcacaaaggtcctggcag (antisense eG*eT*eT*e[5mC]*eA*d[5mC]*dA*dA*dA*dG*dG*dT*d[5mC]*d[5mC]*dT*eG*eG*e[5mC]*eA*eG) [ISIS 180788, 2′-MOE gapmer targeted to mouse RANKL]	at least 40%
aacatggagcgggaggcggc (antisense eA*eA*e[5mC]*eA*eT*dG*dG*dA*dG*d[5mC]*dG*dG*dG*dA*dG*eG*e[5mC]*eG*eG*e[5mC]) [ISIS 180801, 2′-MOE gapmer targeted to mouse RANKL]	at least 40%
180799 (antisense e[5mC]*eG*eG*eG*eA*dG*dG*d[5mC]*dG*dG*d[5mC]*dG*dG*dG*dT*eG*eG*e[5mC]*eG*eG) [compound 180799]	52%
tcagtggcacatgtccaggg (antisense eT*e[5mC]*eA*eG*eT*dG*dG*d[5mC]*dA*d[5mC]*dA*dT*dG*dT*d[5mC]*e[5mC]*eA*eG*eG*eG) [ISIS 180818, 2′-MOE gapmer targeted to mouse RANKL]	at least 40%

* * *

Test system: rat RANKL mRNA
PROTOCOL: Antisense inhibition of rat RANKL mRNA levels in UMR-106 cells, quantitative real-time PCR (Table 3)
Type: cell-based
Design: concentration or dose not given beside the values
CONDITION_INFO: averages from three experiments
Experimental: Cells were seeded onto 24-well plates (Falcon-353047) at a density of […] for use in antisense oligonucleotide transfection. Cells are treated and data are obtained in triplicate. […] Cells were harvested 16-24 hours after oligonucleotide treatment. PCR reagents were obtained from Invitrogen Corporation, (Carlsbad, Calif.). […]
Strand notation (5' to 3'): a small letter for the sugar, then the base; units joined by * are phosphorothioate-linked, units joined directly phosphodiester-linked; [ ] holds rarer units or linkages, { } end groups; capitals alone tell only the bases. e = 2'-O-(2-methoxyethyl) (MOE); [5mC] = 5-methylcytosine; d = 2'-deoxy (DNA)
ENDPOINT_NAME: % INHIB (inhibition of rat RANKL mRNA levels)

SUBSTANCE	EXPERIMENTAL_SYSTEM	TEST_VALUE
cttgggattttgatgctggt (e[5mC]*eT*eT*eG*eG*dG*dA*dT*dT*dT*dT*dG*dA*dT*dG*e[5mC]*eT*eG*eG*eT; antisense) [ISIS 286632, 2′-MOE gapmer targeted to rat RANKL]	rat RANKL mRNA	at least 40%
286608 (antisense e[5mC]*eA*eA*eA*e[5mC]*dG*dG*d[5mC]*dT*dG*dA*dG*d[5mC]*d[5mC]*dT*e[5mC]*eA*eG*eG*e[5mC]) [compound 286608]	rat RANKL mRNA	25%
gcaaatgttggcgtacaggt (eG*e[5mC]*eA*eA*eA*dT*dG*dT*dT*dG*dG*d[5mC]*dG*dT*dA*e[5mC]*eA*eG*eG*eT; antisense) [ISIS 286627, 2′-MOE gapmer targeted to rat RANKL]	rat RANKL mRNA	at least 40%
286587 (antisense eG*e[5mC]*eG*e[5mC]*eA*dG*dG*dT*dA*d[5mC]*dT*dT*dG*d[5mC]*d[5mC]*eG*eT*eA*eG*eT) [compound 286587]	rat RANKL mRNA	50%
286620 (antisense eA*eT*e[5mC]*eT*eT*dG*dG*dT*dT*dA*dA*d[5mC]*d[5mC]*d[5mC]*dT*eT*eA*eG*eT*eT) [compound 286620]	rat RANKL mRNA	48%
